Data provenance: PubChem BioAssay AID764

The entries below are paired with their reported percent activity (GTP binding).
- study.target: Ras-related C3 botulinum toxin substrate 1 (Homo sapiens) (UniProt P63000)
- experiment: activated Rac1 mutant nucleotide binding changes – biochemical, bead-based flow cytometry, multiplex, fluorescent GTP, primary screen (AID 764)
- condition: GST-Rac1 activated beads, at 10 µM, actives lie on both sides, 100% means binding = to untreated wells
Screen size: about 190,000 compounds; about 220 (0.12%) were called active. Roughly 2% stayed inconclusive and do not appear here. This excerpt belongs to a sample that is enriched for actives.

compound | percent activity (GTP binding)
CCN(CC)CCNC(=O)c1ccc(NC(=O)c2c(F)cccc2Cl)cc1 | 99% (inactive)
COc1ccc(C2C(C#N)=C(N)N(c3ncn[nH]3)C3=C2C(=O)CCC3)cc1 (stereo unspecified) | 96% (inactive)
CCOc1ccc(CN2CCN(Cc3ccc(C)o3)CC2CCO)cc1 (stereo unspecified) | 96% (inactive)
Cc1cc(C(=O)Cn2cnc3cc([N+](=O)[O-])ccc3c2=O)c(C)n1CC1CCCO1 (stereo unspecified) | 90% (inactive)
Cn1cnnc1SCC(=O)NNC(=O)COc1ccc(Br)cc1 | 98% (inactive)
COc1cccc(CNC(=O)CCC2CCCN(C(=O)c3ccoc3C)C2)c1 (stereo unspecified) | 95% (inactive)
C/C(CC(=O)Nc1ccc(C)cc1C)=N\NC(=O)C(C)C | 98% (inactive)
COC(=O)C1=C(C)NC(=O)CC1c1ccccc1OC (stereo unspecified) | 99% (inactive)
O=C(C1CC1)N1N=C2CCCCC2C1(O)C(F)(F)F (stereo unspecified) | 96% (inactive)
O=C(COC(=O)c1ccc(F)cc1)Nc1nc2ccc([N+](=O)[O-])cc2s1 | 93% (inactive)
COc1cc(N2C(=O)c3ccccc3C2=O)c(Cl)cc1C(=O)OCC(=O)N1CCOCC1 | 97% (inactive)

====

The entries below are paired with their reported percent activity (GTP binding).
- study.target: Ras-related C3 botulinum toxin substrate 1 (Homo sapiens)
- experiment: activated Rac1 mutant nucleotide binding changes – biochemical, bead-based flow cytometry, multiplex, fluorescent GTP, primary screen (AID 764)
- condition: GST-Rac1 activated beads, at 10 µM, actives lie on both sides, 100% means binding = to untreated wells
Among all 190,000 compounds or so, about 220 (0.12%) were called active. Inconclusive results (about 2%) are left out. The sample as a whole holds a higher share of actives than the screen did.

compound | percent activity (GTP binding), %
CCCCN(C(=O)c1ccc(OC(F)(F)F)cc1)c1c(N)n(CCC)c(=O)[nH]c1=O | 96
Cc1ccc(CC2CC(=O)N(c3nc(C)cc(C)n3)C2=O)cc1 (stereo not given) | 97
CCC(C)N(C(=O)COC(=O)C1C(C(=O)OC)=C(C)NC(C)=C1C(=O)OC)C1CCS(=O)(=O)C1 (stereo not given) | 95
CCN(CC)S(=O)(=O)c1ccc(N2CCOCC2)c(NC(=O)C2COc3ccccc3O2)c1 (stereo not given) | 97
CCN(CC)P(=O)(Nc1ccc(SC(F)F)cc1)c1ccc(N(C)C)cc1NC(=O)c1ccco1 (stereo not given) | 92
O=C(CCNC(=O)Cn1ccc2ccccc2c1=O)NCCC1=CCCCC1 | 101
CCCC(=O)NC(=S)Nc1ccc(CN2CCOCC2)cc1 | 95
COCCCNC(NC(=O)c1ccc(OC)cc1)C(Cl)(Cl)Cl (stereo not given) | 95
CCOC(=O)C1=NOC(Cn2cc(C(C)=O)c(=O)[nH]c2=O)C1 (stereo not given) | 92
CN(C)C(=O)c1cccn(Cc2cccc(C(F)(F)F)c2)c1=O | 94
O=C(c1ccc(F)cc1)n1cc(C(=S)N2CCOCC2)c2ccccc21 | 98
COc1ccc(C2=NN(C(=O)CCC(=O)O)C(c3cccs3)C2)cc1OC (stereo not given) | 96
CN(C)CCOc1cccc(Br)c1 | 95
O=C(Nc1ccc(N2CCOCC2)cc1)c1ccc(-c2ccccc2[N+](=O)[O-])o1 | 93
CCn1c(CNC(=O)c2ccco2)nnc1SCC(=O)Nc1cccc(F)c1 | 98
CCN(CCn1cccn1)C(=O)CC1C(=O)NCCN1Cc1cccc(OC)c1OC (stereo not given) | 93
C1CC1Cc1noc(CN2CCN(CC3CC3)CC2)n1 | 94
COc1cc2sc(C)nc2cc1C | 95
O=C(CN1CCN(C/C=C/c2ccccc2)CC1)Nc1ccc(F)cc1F | 93
Cc1noc(C)c1/C=N/Nc1ccc2ccccc2n1 | 97
O=C(NC(=S)Nc1ccc(S(=O)(=O)Nc2ncccn2)cc1)c1cccc(Br)c1 | 92
Cc1ccc(NC(=O)C(=O)NCc2ccco2)c(C)c1 | 98
CCOc1cc(NS(=O)(=O)c2ccc(OC)cc2)c(OCC)cc1NC(C)=O | 97
COc1ccc(/C=N/n2c(C)cc(C)cc2=O)cc1 | 97
CN(C)C(CNC(=O)c1cccc(C#N)c1)c1ccco1 (stereo not given) | 97
Cc1nnc(CN(C)Cc2cn[nH]c2-c2ccc(-c3ccccc3)cc2)o1 | 97
CS(=O)(=O)Nc1cccc(-c2cn3ccccc3n2)c1 | 96
COCCN(CCOC)S(=O)(=O)c1ccc(C(=O)Nc2nc3c(s2)CCc2ccccc2-3)cc1 | 100
Cc1ccc(C(=O)Nc2cccc3ncccc23)cc1[N+](=O)[O-] | 94
CCCCc1ccc(NC(=S)NCCCN2CCOCC2)cc1 | 94
Cn1c(SCC(=O)NC2CCCCC2)nnc1-c1ccc(N)cc1 | 96
O=S(=O)(NCCc1ccc(F)cc1)c1cccc2cccnc12 | 96
CCOc1cc(/C=N/NC(=O)c2ccc(CSc3nncn3C)cc2)ccc1OCC(=O)N1CCOCC1 | 93
CCOC(=O)C1CCN(C(=O)C2(NC(=O)Nc3cccc(F)c3)CCCCC2)CC1 | 97
CC(=O)NC1(c2ccc(F)cc2)CCN(C(=O)c2c(F)cccc2F)CC1 | 92
CCc1ccc(N2CC(O)=C(c3nc4ccccc4c(=O)[nH]3)C2=N)cc1 | 94
N=C1C(c2nc3ccccc3s2)=C(O)CN1NC(=O)c1ccc([N+](=O)[O-])cc1 | 84
COc1ccc(-c2nc(N)sc2C2(O)C(=O)Nc3c(Br)cc(F)cc32)cc1OC (stereo not given) | 95
CSc1ncnc2sc(C)c(C)c12 | 93
CCCN(CC(=O)Nc1ccccc1C)C(=O)c1cc(=O)[nH]c2ccccc12 | 95
Cc1ccnc(NC(=O)CCC(=O)N(CC(=O)NCCc2ccccc2)Cc2cccs2)c1 | 97
C/C=C/c1ccc(OCC(O)CN2CCCCCCC2)c(OC)c1 (stereo not given) | 96
CC(C)(C)C(=O)CSc1nc2ccccc2o1 | 96
COc1cccc(Cn2cnc3c([N+](=O)[O-])c(C)c(C)cc32)c1 | 96
O=C(O)c1ccc(/C=N/NC(=S)NCc2ccccc2)cc1 | 94

====

The entries below are paired with their reported percent activity (GTP binding).
- study.target: Ras-related C3 botulinum toxin substrate 1 (Homo sapiens)
- experiment: activated Rac1 mutant nucleotide binding changes – biochemical, bead-based flow cytometry, multiplex, fluorescent GTP, primary screen (AID 764)
- condition: GST-Rac1 activated beads, at 10 µM, actives lie on both sides, 100% means binding = to untreated wells
The campaign covered roughly 190,000 compounds. About 220 (0.12%) were called active. About 2% were inconclusive and are not listed. The sample holds actives, similar compounds and a random draw of the others, so the mix is not that of the screen.

molecule | percent activity (GTP binding) (%)
CC(CC(=O)C1C(C)C=CCC1(C)C)NNC(N)=O (configuration not stated) | 95
Cc1ccc(C(=O)CS(C)(=O)=O)cc1 | 99
COc1cc2c(C(=O)N3CCN(C)CC3)c(CSc3ccccc3)n(C)c2cc1Br | 94
CCOC(=O)C1CCN(S(=O)(=O)c2cc(F)ccc2OC)CC1 | 96
O=C1c2ccccc2C(=O)N1CCC(O)C[N+](=O)[O-] (configuration not stated) | 98
CCOC(=O)C1=C(CC)OC(N)=C(C#N)C1c1ccc(F)cc1F (configuration not stated) | 93
CCOc1ccc(N2C(=O)Nc3ccccc3C2(O)C(=O)NCc2ccco2)cc1 (configuration not stated) | 99
O=C(Nc1nnc(Cc2ccccc2)s1)c1cnccn1 | 99
Cn1c(N)c(C(=O)COC(=O)c2cnc(Cl)c(Cl)c2)c(=O)n(C)c1=O | 93
COc1ccc(/C=C/CN2CCCC(C(=O)c3cc(F)ccc3F)C2)cc1 (configuration not stated) | 96
Cc1cccc(C)c1NC(=O)C1CCCN1C(=O)OC(C)(C)C (configuration not stated) | 97
Cc1cc(C(=O)CC#N)c(C)n1-c1c(C)n(C)n(-c2ccccc2)c1=O | 96
CCN(C(=O)Cc1nc(N)n[nH]1)C1(C(=O)Nc2ccccc2)CCCCC1 | 97
CCOC(=O)/C(=N\Nc1ccccc1[N+](=O)[O-])c1csc(Nc2ccccc2)n1 | 91
CC(=O)Nc1ccc(Sc2ccccc2C(=O)N2CCCC2)cn1 | 98
Brc1cc(/C=N/n2cnnc2)oc1Br | 100
COc1ccc(C2=NN(c3ccccc3)C(c3cccs3)C2)cc1 (configuration not stated) | 94
CC(C(=O)NCC1CCCCC1)N(C)Cc1cccc(Cl)c1 (configuration not stated) | 95
NS(=O)(=O)c1ccc(NC(=O)COC(=O)CCc2c[nH]c3ccccc23)cc1 | 99
COc1ccccc1NC(=O)c1c(Br)cnn1C | 95
Cc1nn(CC2CC2)c(=O)n1N(C)c1ncc(C(F)(F)F)cc1Cl | 96
O=C(Cc1ccc(Cl)cc1)NCc1nc(-c2ccccc2)no1 | 91
